- System: recombinant human HDACs (Homo sapiens)
- Assay Summary: HDAC enzymatic assay
- Format: biochemical
- Cond: 5 nM HDAC enzyme, 5 h pre-incubation, 17 h reaction at 25° C.; isoform not given; read-out: IC50
- Description: All recombinant human HDACs were purchased from BPS Bioscience. The substrate, FAM-TSRHK(AC)KL-CONH, was synthesized at NanoSyn. […] Change in the relative fluorescence intensity of the substrate and product peaks reflects enzyme activity. Reaction progress was determined as the product to sum ratio (PSR):P/(S+P), where P is the peak height of the product peptide and S is the peak height of the substrate peptide. […] IC50 values were calculated using a 4 Parameter Logistic Model.
pIC50: −log10 of the molar value.
Experimental Readout: pIC50

See these solved cases before continuing.
1) Nc1cn(-c2ccccc2)nc1NC(=O)N1CCN(C2COC2)CC1 [Compound 356]; < 5.30
2) CN(C)Cc1ccc2c(c1)CN(C(=O)Nc1nn(-c3ccccc3)cc1N)C2 [Compound 351]; 6.30 to 7.00

[ask] Which measured pIC50 value corresponds to CN1CCCC2(CCN(C(=O)Nc3nc(-c4cccnc4)ccc3N)C2)C1 (stereo not drawn) [Compound 211] ?
[reply] < 5.30

[ask] Also need Nc1ccc(-c2ccc(F)cc2)nc1NC(=O)N1CCN2CCCC2C1 (stereo not drawn) [Compound 224] , thanks.
[reply] < 5.30

[ask] Also need Nc1ccc(-n2cccn2)nc1NC(=O)C1CN(Cc2ccccc2)C1 [Compound 205] , thanks.
[reply] < 5.30

[ask] Also need CC(=O)N1CCC(C(=O)Nc2nc(-c3ccccc3)ccc2N)CC1 [Compound 380] , thanks.
[reply] < 5.30

###

// reported pIC50 per item
- System: recombinant human HDACs (Homo sapiens)
- Assay Summary: HDAC enzymatic assay
- Assay type: biochemical
- Cond: 5 nM HDAC enzyme, 5 h pre-incubation, 17 h reaction at 25° C.; isoform not given; read-out: IC50
- Protocol: All recombinant human HDACs were purchased from BPS Bioscience. The substrate, FAM-TSRHK(AC)KL-CONH, was synthesized at NanoSyn. […] Change in the relative fluorescence intensity of the substrate and product peaks reflects enzyme activity. Reaction progress was determined as the product to sum ratio (PSR):P/(S+P), where P is the peak height of the product peptide and S is the peak height of the substrate peptide. […] IC50 values were calculated using a 4 Parameter Logistic Model.
pIC50: −log10 of the molar value.

[ask] Which measured pIC50 value corresponds to CN(C)Cc1ccc2c(c1)CN(C(=O)Nc1nc(-c3ccc(Cl)s3)ccc1N)C2 ?
[reply] < 5.30

[ask] Also need CN1CCN(c2cnc3c(c2)CN(C(=O)Nc2nc(-c4ccc(F)cc4)ccc2N)C3)CC1 , thanks.
[reply] 6.30 to 7.00

[ask] Also need Nc1ccc(-c2cccnc2)nc1NC(=O)c1cn2c(n1)CNCC2 , thanks.
[reply] < 5.30

[ask] Also need Nc1ccc(-c2ccc(F)cc2)nc1NC(=O)N1Cc2cc(CN3CC(F)C3)cnc2C1 , thanks.
[reply] 6.30 to 7.00

###

// reported IC50 per item
- System: recombinant human HDACs (Homo sapiens)
- Assay Summary: HDAC enzymatic assay
- Assay type: biochemical
- Cond: 5 nM HDAC enzyme, 5 h pre-incubation, 17 h reaction at 25° C.; isoform not given; read-out: IC50

See these solved cases before continuing.
1) Nc1ccc(-c2ccc(F)cc2)nc1NC(=O)N1Cc2cccc(N3CCCC3)c2C1 [Compound 249]; > 5000 nM
2) CN(C)Cc1cnc2c(c1)CN(C(=O)Nc1nc(-c3cccnc3)ccc1N)C2 [Compound 161]; 100 to 500 nM
3) Nc1ccc(-c2ccc(F)cc2)nc1NC(=O)C1CN(c2ccccn2)C1 [Compound 192]; > 5000 nM
4) Nc1ccc(-c2ccc(F)cc2)nc1NC(=O)N1Cc2cc(F)cnc2C1 [Compound 186]; 500 to 5000 nM
5) CN1CCC(c2cnc3c(c2)CN(C(=O)Nc2nc(-c4cccnc4)ccc2N)C3)CC1 [Compound 265]; 500 to 5000 nM
6) CN(C1CCOC1)C1CC2CN(C(=O)Nc3nc(-c4ccc(F)cc4)ccc3N)CC2C1 (stereo not shown) [Compound 237]; > 5000 nM
7) Nc1cn(-c2ccccc2)nc1NC(=O)N1CCC2(CCOCC2)C1 [Compound 407]; > 5000 nM
8) Nc1ccc(-c2ccc(F)cc2)nc1NC(=O)N1Cc2cnc(N3CCOCC3)cc2C1 [Compound 150]; 100 to 500 nM

[ask] Which measured IC50 value corresponds to CN(C)Cc1cnc2c(c1)CN(C(=O)Nc1nc(-c3cccs3)ccc1N)C2 [Compound 145] ?
[reply] 100 to 500 nM
